Source of measurements: patent US8546435B2

# testDescription: CaCo-2 permeability assay
# Type: in vitro ADME
# experimentalConditions: human, efflux ratio, read-out: CaCo-2 Assay ba/ab
parameter: efflux ratio at 2 h
Output spec: single numeric token, no unit.

Take a look at these entries with their results.
[
  {
    "compound": "COc1ccc(Cn2c([C@@H](Cc3ccccc3)NC(C)=O)nnc2[C@@H](Cc2c[nH]c3ccccc23)NC(=O)c2ccccn2)cc1.O=C(O)C(F)(F)F [Cpd 4]",
    "testResult": 18
  },
  {
    "compound": "COc1ccc(Cn2c([C@@H](Cc3c[nH]c4ccccc34)NC(C)=O)nnc2[C@@H](Cc2c[nH]c3ccccc23)NC(=O)C(C)(C)N)cc1.O=C(O)C(F)(F)F [Cpd 8]",
    "testResult": 9.25
  },
  {
    "compound": "COc1ccc(Cn2c([C@@H](Cc3ccccc3)NC=O)nnc2[C@@H](Cc2c[nH]c3ccccc23)NC(=O)c2ccccn2)cc1.O=C(O)C(F)(F)F [Cpd 5]",
    "testResult": 13.3
  },
  {
    "compound": "COc1ccc(Cn2c(CCc3ccccc3)nnc2[C@@H](Cc2c[nH]c3ccccc23)NC(=O)OCC(C)C)cc1.O=C(O)C(F)(F)F [Cpd 17]",
    "testResult": 0.45
  }
]

Continue with the compound presented below.
q: Form field: reported efflux ratio at 2 h of COc1ccc(Cn2c([C@@H](Cc3c[nH]c4ccccc34)NC(C)=O)nnc2[C@@H](Cc2c[nH]c3ccccc23)NC(=O)c2ccccn2)cc1.O=C(O)C(F)(F)F [Cpd 3]
a: 51.9

====

# studySystem: Mouse Ghrelin Receptor (GHS-R 1A) (Mus musculus (Mouse), UniProt Q99P50)
# Sequence (Q99P50 whole entry): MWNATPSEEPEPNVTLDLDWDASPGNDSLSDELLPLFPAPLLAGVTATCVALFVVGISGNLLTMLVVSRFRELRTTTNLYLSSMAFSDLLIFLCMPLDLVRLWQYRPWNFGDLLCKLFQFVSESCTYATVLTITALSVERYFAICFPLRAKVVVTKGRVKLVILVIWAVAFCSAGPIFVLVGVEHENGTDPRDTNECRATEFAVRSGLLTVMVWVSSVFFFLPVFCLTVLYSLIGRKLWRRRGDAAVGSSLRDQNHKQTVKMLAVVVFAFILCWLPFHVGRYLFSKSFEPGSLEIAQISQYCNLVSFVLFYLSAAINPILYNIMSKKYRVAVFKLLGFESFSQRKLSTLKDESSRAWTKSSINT
# testDescription: Calcium release, antagonist
# Type: cell-based
# experimentalConditions: 15 minutes preincubation, then ghrelin; read-out: Mouse Ghrelin Receptor Antagonist Calcium Release IC50
parameter: IC50 (nM)
Dear colleague, please return just the value in nM, with no unit written.

[
  {
    "structureSmilesString": "COc1ccc(Cn2c([C@@H](Cc3c[nH]c4ccccc34)NC(C)=O)nnc2[C@@H](Cc2c[nH]c3ccccc23)NC(=O)c2ccccn2)cc1.O=C(O)C(F)(F)F",
    "IC50, nM": 29.2
  },
  {
    "structureSmilesString": "COc1ccc(Cn2c([C@@H](Cc3c[nH]c4ccccc34)NC(C)=O)nnc2[C@@H](Cc2c[nH]c3ccccc23)NC(=O)C(C)(C)N)cc1.O=C(O)C(F)(F)F",
    "IC50, nM": 363
  },
  {
    "structureSmilesString": "COc1ccc(Cn2c(CCc3ccccc3)nnc2[C@@H](Cc2c[nH]c3ccccc23)NC(=O)OCC(C)C)cc1.O=C(O)C(F)(F)F",
    "IC50, nM": 607
  }
]

Continue with the molecule presented below.
q: Form field: reported IC50 of COc1ccc(Cn2c([C@@H](Cc3ccccc3)NC=O)nnc2[C@@H](Cc2c[nH]c3ccccc23)NC(=O)c2ccccn2)cc1.O=C(O)C(F)(F)F
a: 89.3

====

As shown below, each of these compounds has a reported EC50 value.
# studySystem: CYP3A4 (Homo sapiens (Human))
# testDescription: CYP3A4 inhibition in human liver microsomes, direct and metabolism-dependent
# Type: in vitro ADME
# experimentalConditions: marker substrate midazolam, direct inhibition, human liver microsomes; read-out: CYP3A4 Inhibition Midazolam EC50
Dear colleague, please return just the value in µM, with no unit written.

q: Form field: reported EC50 of COc1ccc(Cn2c([C@@H](Cc3ccccc3)NC(C)=O)nnc2[C@@H](Cc2c[nH]c3ccccc23)NC(=O)c2ccccn2)cc1.O=C(O)C(F)(F)F [Cpd 4]
a: 3.9

q: Then this compound: COc1ccc(Cn2c([C@@H](Cc3c[nH]c4ccccc34)NC(C)=O)nnc2[C@@H](Cc2c[nH]c3ccccc23)NC(=O)c2ccccn2)cc1.O=C(O)C(F)(F)F [Cpd 3]
a: 3.2

q: Then this compound: COc1ccc(Cn2c([C@@H](Cc3ccccc3)NC=O)nnc2[C@@H](Cc2c[nH]c3ccccc23)NC(=O)c2ccccn2)cc1.O=C(O)C(F)(F)F [Cpd 5]
a: 3.8

====

# testDescription: CaCo-2 permeability assay
# Type: in vitro ADME
# experimentalConditions: human, b to a, 3 or 5 μM, 2 hours at 37° C., read-out: CaCo-2 Assay Papp ba
As shown below, each of these molecules has a reported Papp B→A at 2 h value.
Dear colleague, please return just the value in ×10⁻⁶ cm/s, with no unit written.

Take a look at these entries with their results.
[
  {
    "molecule": "COc1ccc(Cn2c([C@@H](Cc3c[nH]c4ccccc34)NC(C)=O)nnc2[C@@H](Cc2c[nH]c3ccccc23)NC(=O)c2ccccn2)cc1.O=C(O)C(F)(F)F [Cpd 3]",
    "parameter": "Papp B→A at 2 h",
    "testResult": 17.2
  },
  {
    "molecule": "COc1ccc(Cn2c(CCc3ccccc3)nnc2[C@@H](Cc2c[nH]c3ccccc23)NC(=O)OCC(C)C)cc1.O=C(O)C(F)(F)F [Cpd 17]",
    "parameter": "Papp B→A at 2 h",
    "testResult": 10
  }
]

q: Form field: reported Papp B→A at 2 h of COc1ccc(Cn2c([C@@H](Cc3ccccc3)NC=O)nnc2[C@@H](Cc2c[nH]c3ccccc23)NC(=O)c2ccccn2)cc1.O=C(O)C(F)(F)F [Cpd 5]
a: 16.8

q: Then this molecule: COc1ccc(Cn2c([C@@H](Cc3c[nH]c4ccccc34)NC(C)=O)nnc2[C@@H](Cc2c[nH]c3ccccc23)NC(=O)C(C)(C)N)cc1.O=C(O)C(F)(F)F [Cpd 8]
a: 0.74

q: Then this molecule: COc1ccc(Cn2c([C@@H](Cc3ccccc3)NC(C)=O)nnc2[C@@H](Cc2c[nH]c3ccccc23)NC(=O)c2ccccn2)cc1.O=C(O)C(F)(F)F [Cpd 4]
a: 25.4

====

As shown below, each of these compounds has a reported EC50 value.
# studySystem: CYP3A4 (Homo sapiens (Human), UniProt P08684)
# Sequence (P08684 whole entry): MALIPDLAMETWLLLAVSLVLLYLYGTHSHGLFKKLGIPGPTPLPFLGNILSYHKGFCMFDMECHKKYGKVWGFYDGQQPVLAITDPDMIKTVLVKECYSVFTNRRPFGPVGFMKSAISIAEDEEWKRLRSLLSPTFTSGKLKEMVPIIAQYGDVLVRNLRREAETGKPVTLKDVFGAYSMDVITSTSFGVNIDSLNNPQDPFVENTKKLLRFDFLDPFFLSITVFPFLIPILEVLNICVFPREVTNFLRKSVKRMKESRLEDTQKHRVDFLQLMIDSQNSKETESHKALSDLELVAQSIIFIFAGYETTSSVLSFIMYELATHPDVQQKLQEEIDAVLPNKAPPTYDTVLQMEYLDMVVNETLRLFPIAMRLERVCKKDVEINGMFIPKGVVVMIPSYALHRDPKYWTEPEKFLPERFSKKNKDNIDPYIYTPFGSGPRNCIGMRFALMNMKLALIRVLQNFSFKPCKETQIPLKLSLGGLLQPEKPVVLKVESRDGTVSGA
# testDescription: CYP3A4 inhibition in human liver microsomes, direct and metabolism-dependent
# Format: in vitro ADME
# experimentalConditions: marker substrate testosteron, 30 minutes preincubation with NADPH; read-out: CYP3A4 Inhibition Testosteron Preincubation EC50
Dear colleague, please return just the value in µM, with no unit written.

Take a look at these entries with their results.
[
  {
    "structureSmilesString": "COc1ccc(Cn2c([C@@H](Cc3ccccc3)NC(C)=O)nnc2[C@@H](Cc2c[nH]c3ccccc23)NC(=O)[C@@H]2CNCCO2)cc1.O=C(O)C(F)(F)F",
    "parameter": "EC50",
    "testResult": 1.1
  },
  {
    "structureSmilesString": "COc1ccc(Cn2c([C@@H](Cc3ccccc3)NC(C)=O)nnc2[C@@H](Cc2c[nH]c3ccccc23)NC(=O)CO)cc1.O=C(O)C(F)(F)F",
    "parameter": "EC50",
    "testResult": 1.4
  },
  {
    "structureSmilesString": "COc1ccc(Cn2c([C@@H](Cc3c[nH]c4ccccc34)NC=O)nnc2[C@@H](Cc2c[nH]c3ccccc23)NC(=O)C(C)(C)N)cc1.O=C(O)C(F)(F)F",
    "parameter": "EC50",
    "testResult": 1.5
  },
  {
    "structureSmilesString": "COc1ccc(Cn2c(CCc3ccccc3)nnc2[C@@H](Cc2c[nH]c3ccccc23)NC(=O)OCC(C)C)cc1.O=C(O)C(F)(F)F",
    "parameter": "EC50",
    "testResult": 2
  }
]

Continue with the compound presented below.
q: Hello, I am looking for reported EC50 with CYP3A4 (Homo sapiens (Human), UniProt P08684) for COc1ccc(Cn2c([C@@H](Cc3c[nH]c4ccccc34)NC(C)=O)nnc2[C@@H](Cc2c[nH]c3ccccc23)NC(=O)C(C)(C)N)cc1.O=C(O)C(F)(F)F . Could you help?
a: 0.9

====

# studySystem: hERG channel (Homo sapiens (Human), UniProt Q12809)
# Sequence (Q12809 whole entry): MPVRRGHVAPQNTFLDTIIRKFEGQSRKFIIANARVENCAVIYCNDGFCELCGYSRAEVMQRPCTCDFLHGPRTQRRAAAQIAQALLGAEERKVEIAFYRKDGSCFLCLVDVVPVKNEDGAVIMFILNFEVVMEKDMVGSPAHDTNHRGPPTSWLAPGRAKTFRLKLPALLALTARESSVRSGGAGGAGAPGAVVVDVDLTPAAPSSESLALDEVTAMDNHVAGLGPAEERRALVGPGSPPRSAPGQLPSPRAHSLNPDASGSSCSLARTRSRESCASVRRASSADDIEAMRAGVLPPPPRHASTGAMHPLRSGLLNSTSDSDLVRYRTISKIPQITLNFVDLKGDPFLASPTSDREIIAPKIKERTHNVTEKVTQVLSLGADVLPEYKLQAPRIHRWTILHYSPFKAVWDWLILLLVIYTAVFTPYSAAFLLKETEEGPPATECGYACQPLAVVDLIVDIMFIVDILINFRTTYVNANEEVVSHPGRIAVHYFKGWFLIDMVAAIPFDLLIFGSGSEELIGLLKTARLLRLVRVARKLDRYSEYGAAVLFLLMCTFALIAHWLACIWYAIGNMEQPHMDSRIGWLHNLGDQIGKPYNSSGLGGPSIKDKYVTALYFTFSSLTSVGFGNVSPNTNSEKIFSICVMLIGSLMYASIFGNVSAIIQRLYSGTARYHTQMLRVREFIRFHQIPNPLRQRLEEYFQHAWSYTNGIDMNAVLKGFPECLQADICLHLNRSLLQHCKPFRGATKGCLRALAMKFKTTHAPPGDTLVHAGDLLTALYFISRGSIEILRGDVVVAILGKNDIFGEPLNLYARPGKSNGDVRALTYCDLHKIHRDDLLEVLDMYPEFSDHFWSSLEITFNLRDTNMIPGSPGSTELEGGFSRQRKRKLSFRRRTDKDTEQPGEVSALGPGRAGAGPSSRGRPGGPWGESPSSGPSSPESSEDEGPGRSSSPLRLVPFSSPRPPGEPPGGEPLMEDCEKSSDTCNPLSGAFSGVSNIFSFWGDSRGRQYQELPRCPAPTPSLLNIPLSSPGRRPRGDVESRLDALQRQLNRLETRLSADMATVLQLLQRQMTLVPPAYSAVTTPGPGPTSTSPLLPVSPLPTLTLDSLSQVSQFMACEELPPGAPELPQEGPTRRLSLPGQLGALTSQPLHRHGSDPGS
# testDescription: Predictor hERG Fluorescence Polarization Assay
parameter: pEC50
Scale: negative log10 of molar concentration, which is what pEC50 denotes.

q: Form field: reported pEC50 of COc1ccc(Cn2c(CCc3ccccc3)nnc2[C@@H](Cc2c[nH]c3ccccc23)NC(=O)OCC(C)C)cc1.O=C(O)C(F)(F)F
a: 5.43

====

As shown below, each of these compounds has a reported pIC50 value.
# studySystem: UniProt Q92847
# Sequence (Q92847 whole entry): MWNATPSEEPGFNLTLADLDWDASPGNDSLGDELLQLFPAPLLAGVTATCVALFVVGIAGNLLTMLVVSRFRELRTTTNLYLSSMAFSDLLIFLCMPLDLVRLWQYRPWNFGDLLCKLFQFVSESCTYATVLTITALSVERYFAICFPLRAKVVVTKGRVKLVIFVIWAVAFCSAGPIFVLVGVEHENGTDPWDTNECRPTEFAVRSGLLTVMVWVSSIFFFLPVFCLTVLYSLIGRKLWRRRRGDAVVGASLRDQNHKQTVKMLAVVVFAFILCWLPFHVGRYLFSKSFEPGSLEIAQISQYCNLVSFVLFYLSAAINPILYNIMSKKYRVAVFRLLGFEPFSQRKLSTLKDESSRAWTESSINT
# testDescription: CRE/Luc reporter gene assay, antagonist
# Assay type: cell-based
# experimentalConditions: 6 h, 1 μM rolipram
Scale: negative log10 of molar concentration, which is what pIC50 denotes.

Take a look at these entries with their results.
[
  {
    "compound": "COc1ccc(Cn2c(CCc3c[nH]c4ccccc34)nnc2[C@@H](Cc2ccc3ccccc3c2)NC(=O)OC(C)(C)C)cc1.O=C(O)C(F)(F)F [Cpd 15]",
    "pIC50": 7.60
  },
  {
    "compound": "COc1ccc(Cn2c([C@@H](Cc3ccccc3)NC(C)=O)nnc2[C@@H](Cc2c[nH]c3ccccc23)NC(=O)CO)cc1.O=C(O)C(F)(F)F [Cpd 6]",
    "pIC50": 8.11
  },
  {
    "compound": "COc1ccc(Cn2c([C@@H](Cc3ccccc3)NC(C)=O)nnc2[C@@H](Cc2c[nH]c3ccccc23)NC(=O)[C@@H]2CNCCO2)cc1.O=C(O)C(F)(F)F [Cpd 7]",
    "pIC50": 8.02
  },
  {
    "compound": "COc1ccc(Cn2c([C@@H](Cc3c[nH]c4ccccc34)NC=O)nnc2[C@@H](Cc2c[nH]c3ccccc23)NC(=O)C(C)(C)N)cc1.O=C(O)C(F)(F)F [Cpd 9]",
    "pIC50": 7.23
  },
  {
    "compound": "COc1ccc(Cn2c([C@@H](Cc3c[nH]c4ccccc34)NC(C)=O)nnc2[C@@H](Cc2c[nH]c3ccccc23)NC(=O)c2ccccn2)cc1.O=C(O)C(F)(F)F [Cpd 3]",
    "pIC50": 8.66
  },
  {
    "compound": "COc1ccc(Cn2c(CCc3ccccc3)nnc2[C@@H](Cc2c[nH]c3ccccc23)NC(=O)OCC(C)C)cc1.O=C(O)C(F)(F)F [Cpd 17]",
    "pIC50": 7.68
  },
  {
    "compound": "COc1ccc(Cn2c([C@@H](Cc3c[nH]c4ccccc34)NC(C)=O)nnc2[C@@H](Cc2c[nH]c3ccccc23)NC(=O)C(C)(C)N)cc1.O=C(O)C(F)(F)F [Cpd 8]",
    "pIC50": 7.65
  },
  {
    "compound": "CCOC(=O)Cc1nnc([C@@H](Cc2c[nH]c3ccccc23)NC(=O)c2cccnc2)n1Cc1ccc(OC)cc1 [Cpd 1]",
    "pIC50": 7.89
  }
]

Continue with the compound presented below.
q: Form field: reported pIC50 of COc1ccc(Cn2c([C@@H](Cc3ccccc3)NC=O)nnc2[C@@H](Cc2c[nH]c3ccccc23)NC(=O)c2ccccn2)cc1.O=C(O)C(F)(F)F [Cpd 5]
a: 8.08
